Where do these numbers come from? They come from PubChem BioAssay (NCI).

# System: HOP-92 NSCLC
# EXPERIMENT SUMMARY: NCI tumour cell line growth inhibition, 48 h

# COMPOUND, RELATION OPERATOR, TGI / µM
data = [
    ("COc1cc([C@H]2OC[C@@H]3C(c4cc(OC)c5c(c4)OCO5)OC[C@H]23)cc(OC)c1OC (stereo partly drawn)", ">", 100),
    ("CCOC(=O)Nc1cc2c(c(N)n1)N=C(c1ccc(Cl)cc1Cl)CN2", "=", 44.7),
    ("CCOC(=O)C(=O)CC(=O)C(Br)C(Br)c1ccc(Cl)cc1 (stereo not drawn)", "=", 59.6),
    ("CC(=O)O[C@H]1CSC[C@@H](OC(C)=O)C1[N+](=O)[O-] (stereo partly drawn)", "=", 39.7),
    ("C=CCN(C(C)=O)c1cc(OCc2ccccc2)c2c(c1)c(C)cn2S(=O)(=O)c1ccccc1", ">", 100),
    ("CC(=O)N(C(=O)CC(=O)N1N=C(C)C(N=Nc2cccc([N+](=O)[O-])c2)C1=O)c1ccc(Cl)cc1 (stereo not drawn)", ">", 10),
    ("COc1cc(F)c(F)c(Nc2ccc(I)cc2F)c1NS(=O)(=O)C1(CC(O)CO)CC1 (stereo not drawn)", "=", 19.6),
    ("c1c2c(cc3c1OCO3)-c1ncc3cc4c(cc3c1C2)OCO4", ">", 80.5),
    ("C#C[C@]1(O)CC[C@H]2[C@@H]3CCC4=C/C(=N/OC(=O)c5cccc6cc7ccccc7nc56)CC[C@@H]4[C@H]3CC[C@@]21CC", ">", 100),
    ("COc1ccc(/C=C(\\C#N)c2ccccn2)cc1OC", "=", 48.7),
    ("COc1ccc(N2C(=O)[C@@H]3[C@@H]4CC(C)CC[C@@H]4c4c([nH]c5ccccc45)[C@@H]3C2=O)cc1 (stereo partly drawn)", "=", 23),
    ("C=C1C(=O)C23C(O)CC4C(C)(C)CCC(O)C4(C)C2CC(OC(C)=O)C1[C@H]3O (stereo partly drawn)", "=", 7.01),
    ("Nc1nc(SCC#CCCl)c2[nH]cnc2n1", "=", 10.4),
    ("N#CC1=C(N)OC2=C(CCCc3ccc([N+](=O)[O-])cc32)C1c1ccc(Cl)cc1 (stereo not drawn)", ">", 100),
    ("CN(N=O)c1ccc(/C=C/c2ccnc3ccccc23)cc1", ">", 100),
    ("COc1cc2c(c3oc4c(O)cccc4c(=O)c13)CC(C(C)(O)CCl)O2 (stereo not drawn)", "=", 10.5),
    ("CCOC(=O)c1cccc(N=NNc2cccc(C(=O)OCC)c2)c1", "=", 46.8),
    ("N#Cc1cnn(C(=O)c2nn(-c3ccc(Cl)cc3)cc2O)c1N", "=", 27.3),
    ("Cc1cnc(C(=O)Nc2nc3ccc(S(=O)(=O)Nc4ccc(C(C)(C)C)cc4)cc3[nH]2)cn1", "=", 7.24),
    ("CC(C)(C)n1cc(-c2ccnc(NCCCNS(=O)(=O)c3cccc4ccccc34)c2)c(-c2cccc(O)c2)n1", "=", 5.07),
    ("O=[N+]([O-])c1ccc(CSC2=C(c3ccc(Cl)cc3)S/C(=C3\\SC(SCc4ccc([N+](=O)[O-])cc4)=C(c4ccc(Cl)cc4)S3)S2)cc1", ">", 100),
    ("COc1ccccc1NC(=O)c1sc2ncn(CCOc3ccccc3)c(=O)c2c1C", ">", 50),
    ("CCOC(=O)C1=C(C)N(NC(=O)Nc2ccccc2)C2(N)N(NC(=O)Nc3ccccc3)C(C)=C(C(=O)OCC)C12C#N (stereo not drawn)", "=", 39.4),
    ("COc1ccc2cc(CNCCCCCCNC(=O)Nc3cccc4ccccc34)ccc2c1", ">", 100),
    ("CCC(C)C(NC(=O)c1cccc2c(=O)c3ccccc3[nH]c12)C(=O)O (stereo not drawn)", ">", 100),
    ("O=C(C=P(c1ccccc1)(c1ccccc1)c1ccccc1)c1ccccc1-c1ccccc1C(=O)C=P(c1ccccc1)(c1ccccc1)c1ccccc1", "=", 0.0544),
    ("Cc1ccc(C)c(N2CCN(c3ccncc3N)CC2)c1", "=", 46.2),
    ("Cc1ccc2nc(CN(CCN(Cc3nc4ccc(C)cc4[nH]3)Cc3nc4ccc(C)cc4[nH]3)Cc3nc4ccc(C)cc4[nH]3)[nH]c2c1", "=", 2.89),
    ("COC(=O)c1sc2c(c1C(=O)OC)C(=Nc1ccc(OC)cc1)SC2=Nc1ccc(OC)cc1", "=", 2.91),
    ("O=C1c2c(c3c4ccccc4n(CC4CO4)c3c3[nH]c4ccccc4c23)C(=O)N1Cc1ccccc1 (stereo not drawn)", ">", 100),
    ("O=C1C=C2SC3C[C@@]24CC1(O)[N+]1=c2c4c(c(O)c4c2=C(C=N4)CC1)N3", "=", 2.67),
    ("CCOc1c2c(cc3c1C(=O)c1c(OC)cccc1C3=O)C=C(OC)CC2", ">", 25),
    ("COc1ccc(/C=N/n2c(-c3ccccc3)n[nH]c2=O)c(OC)c1", ">", 100),
    ("O=C1OCOC2(CCCC2)C1c1ccccc1 (stereo not drawn)", ">", 100),
    ("C=C(CN1CCN(c2cc(C(F)(F)F)cc(C(F)(F)F)c2)CC1)c1ccc(C(=O)Nc2ccccc2N)cc1", "=", 7.45),
    ("O=C(/C=C/c1ccco1)Nc1ncc(Cc2cc(Cl)ccc2Cl)s1", ">", 100),
    ("CCN(CC)C(=O)Cc1[nH][nH]c(=O)c1C(=O)N(CC)CC", ">", 100),
    ("CCN(CC)c1ccc(N=Nc2ccc(-c3nc4cccnc4s3)cc2)cc1", ">", 100),
]
